conditionParameters: in ethyl acetate, 322.8 K
readoutName: solubility (mole fraction)

Need solubility (mole fraction) of "CCn1c2ccccc2c2cc(-n3nncc3-c3ccccc3)ccc21" , thanks.
0.0154

* * *

conditionParameters: in methanol, 300.7 K
readoutName: solubility (mole fraction)
The answer should be written as a number, with no unit following it.

Need solubility (mole fraction) of "CCn1c2ccccc2c2cc(-n3nncc3-c3ccccc3)ccc21" , thanks.
0.000949

* * *

conditionParameters: in n-butanol, 298.2 K
readoutName: solubility (mole fraction)
The answer should be written as a number, with no unit following it.

Need solubility (mole fraction) of "CCn1c2ccccc2c2cc(-n3nncc3-c3ccccc3)ccc21" , thanks.
0.00138

Provenance of the data: BigSolDB 2.1
